- TESTED SYSTEM: T1, human PVRIG-mFc protein (Acro, PVG-H5253) (human, UniProt Q6DKI7 41-171, limits assumed)
- T1 construct: bought reagent; also called PVRIG-ECD-mFc
- T1 sequence (looked up): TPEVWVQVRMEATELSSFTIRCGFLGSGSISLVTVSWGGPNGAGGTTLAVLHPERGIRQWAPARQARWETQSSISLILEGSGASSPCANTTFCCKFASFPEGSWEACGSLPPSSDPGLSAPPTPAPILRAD
- PROTOCOL DETAILS: competition FACS; blocked: human PVRIG-mFc binding to CHO-K1-CD112 cells
READOUT: IC50 (read off the curve)

Problem: Query IC50 (read off the curve) for PVRIG-A35 (VHH, tested as VHH-hinge-CH2-CH3 (human IgG1-Fc); not shown: human IgG1 hinge-CH2-CH3) VHH: EVQVVESGGGLVQSGGSLRLSCAASGRTRSMYVMGWFRQAPGKEREFVGRIKWSGDTTYTSYADFVKGRFTLYGNQARNTVYLQMNSLKPEDTAVYYCNGRSRFNVINAWGTGTLVTVAS
Result: ~1 nM

Problem: Query IC50 (read off the curve) for PVRIG-A117 (VHH, tested as VHH-hinge-CH2-CH3 (human IgG1-Fc); not shown: human IgG1 hinge-CH2-CH3) VHH: EVQVVESGGGLVQAGGSLRLSCTASEHIYDLYIMGWYRQAPGKDRELVATITYTGSIYIADSVKDRFTISRGNAKNTVSLQMSGLKPEDTAVYYCNADPSGLGRKLYWGQGTQVTVSS
Result: ~1 nM
